Data credit: patent US20260297080A1

target: CDK2/Cyclin E1 (Homo sapiens); experiment: CDK2/Cyclin E1 Biochemical Assay (TR-FRET), 0.060 mM ATP; conditions: 0.15 μM Rb (Ser780)-biotin substrate, pH7.0, 60 min preincubation, 120 min reaction, room temperature
PROPERTY_NAME: IC50 (nM)

CC(NC(=O)O[C@H]1CC[C@@H](c2cc(Nc3ccc4c(c3F)CNS4(=O)=O)n[nH]2)C1)C1CC1 (relative stereo) :: 1.7

I. CC(C)NC(=O)O[C@H]1CC[C@@H](c2cc(Nc3ccc4c(c3F)CN(CC3CCN(C)C3=O)S4(=O)=O)n[nH]2)C1 (relative stereo)
II. CC(C)NC(=O)O[C@H]1CC[C@@H](c2cc(Nc3cc4c(cc3F)S(=O)(=O)N(CCO)C4)n[nH]2)C1 (relative stereo)
# argmax over IC50 for candidates I and II I would appreciate it if you answered with the label of your choice.
II

----------
molecular target: CDK1/Cyclin B1 (Homo sapiens); assay: CDK1/Cyclin B1 Biochemical Assay (TR-FRET), 0.015 mM ATP; details: 0.15 μM Rb (Ser780)-biotin substrate, pH7.0, 60 min preincubation, 120 min reaction, room temperature
pIC50: −log10 of the molar value.
PROPERTY_NAME: pIC50

O=C(NCCC(F)(F)F)O[C@@H]1CC[C@H](c2cc(Nc3cc4c(cc3F)S(=O)(=O)NC4)n[nH]2)C1 (single isomer, unassigned) [Example 419a] :: 6.53

I. CC(C)NC(=O)O[C@H]1CC[C@@H](c2cc(Nc3ccc4c(c3F)CN(C3COC3)S4(=O)=O)n[nH]2)C1 (single isomer, unassigned) [Example 133a]
II. CC(C)NC(=O)O[C@H]1CC[C@@H](c2cc(Nc3ccc4c(c3)C(F)(F)S(=O)(=O)N4C)n[nH]2)C1 (relative stereo)
# argmax over pIC50 for candidates I and II I would appreciate it if you answered with the label of your choice.
II
(II: 6.32, I: 5.97)

----------
target: CDK2/Cyclin E1 (Homo sapiens); experiment: CDK2/Cyclin E1 Biochemical Assay (TR-FRET), 0.060 mM ATP; settings: 0.15 μM Rb (Ser780)-biotin substrate, pH7.0, 60 min preincubation, 120 min reaction, room temperature
PROPERTY_NAME: IC50 (nM)

CC1NS(=O)(=O)c2ccc(Nc3cc([C@@H]4CC[C@H](OC(=O)NC5(C)CC5)C4)[nH]n3)cc21 (single isomer, unassigned) [Example 322b] :: 0.6
CC(C)NC(=O)O[C@H]1CC[C@@H](c2cc(Nc3ccc4c(c3F)CN(C)S4(=O)=O)n[nH]2)C1 (single isomer, unassigned) [Example 121a] :: 5.8

A. CC(C)NC(=O)O[C@H]1CC[C@@H](c2cc(Nc3ccc4c(c3F)CN(CC(O)CO)S4(=O)=O)n[nH]2)C1 (relative stereo)
B. CC[C@H](C)NC(=O)O[C@H]1CC[C@@H](c2cc(Nc3ccc4c(c3F)C(C)NS4(=O)=O)n[nH]2)C1 (single isomer, unassigned) [Example 54d]
Between the entries labeled A and B , whose measured IC50 is lower? I would appreciate it if you answered with the label of your choice.
B
(B: 3.2 nM, A: 5.2 nM)

a. CN1c2ccc(Nc3cc([C@@H]4CC[C@H](OC(=O)NC5(CO)CCC5)C4)[nH]n3)cc2CS1(=O)=O (relative stereo)
b. COCC(C)(C)NC(=O)O[C@H]1CC[C@@H](c2cc(Nc3ccc4c(c3F)CN(C)S4(=O)=O)n[nH]2)C1 (relative stereo)
# argmax over IC50 for candidates a and b I would appreciate it if you answered with the label of your choice.
b

----------
molecular target: CDK2/Cyclin E1 (Homo sapiens, UniProt P24941); experiment: CDK2/Cyclin E1 Biochemical Assay (TR-FRET), 0.060 mM ATP; conditions: 0.15 μM Rb (Ser780)-biotin substrate, pH7.0, 60 min preincubation, 120 min reaction, room temperature
PROPERTY_NAME: IC50 (nM)

CC(C)NC(=O)O[C@H]1CC[C@@H](c2cc(Nc3ccc4c(c3)NS(=O)(=O)N4)n[nH]2)C1 (relative stereo) :: 134

1. CC[C@H](C)NC(=O)O[C@H]1CC[C@@H](c2cc(Nc3ccc4c(c3)CS(=O)(=O)N4C)n[nH]2)C1 (relative stereo)
2. CN1Cc2c(ccc(Nc3cc([C@@H]4CC[C@H](OC(=O)NC5COC5)C4)[nH]n3)c2F)S1(=O)=O (relative stereo)
Between the entries labeled 1 and 2 , whose measured IC50 is lower? I would appreciate it if you answered with the label of your choice.
1

----------
biological target: CDK1/Cyclin B1 (Homo sapiens, UniProt P06493); test: CDK1/Cyclin B1 Biochemical Assay (TR-FRET), 0.015 mM ATP; conditions: 0.15 μM Rb (Ser780)-biotin substrate, pH7.0, 60 min preincubation, 120 min reaction, room temperature
Sequence (P06493 whole entry): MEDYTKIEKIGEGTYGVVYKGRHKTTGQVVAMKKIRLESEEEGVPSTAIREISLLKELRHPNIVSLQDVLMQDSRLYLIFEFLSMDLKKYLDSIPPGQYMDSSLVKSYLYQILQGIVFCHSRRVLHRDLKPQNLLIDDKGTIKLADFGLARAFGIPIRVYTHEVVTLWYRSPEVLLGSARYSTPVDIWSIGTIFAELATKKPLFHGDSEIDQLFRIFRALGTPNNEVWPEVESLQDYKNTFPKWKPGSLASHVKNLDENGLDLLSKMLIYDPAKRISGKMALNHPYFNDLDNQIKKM
Sequence (P14635 whole entry partner): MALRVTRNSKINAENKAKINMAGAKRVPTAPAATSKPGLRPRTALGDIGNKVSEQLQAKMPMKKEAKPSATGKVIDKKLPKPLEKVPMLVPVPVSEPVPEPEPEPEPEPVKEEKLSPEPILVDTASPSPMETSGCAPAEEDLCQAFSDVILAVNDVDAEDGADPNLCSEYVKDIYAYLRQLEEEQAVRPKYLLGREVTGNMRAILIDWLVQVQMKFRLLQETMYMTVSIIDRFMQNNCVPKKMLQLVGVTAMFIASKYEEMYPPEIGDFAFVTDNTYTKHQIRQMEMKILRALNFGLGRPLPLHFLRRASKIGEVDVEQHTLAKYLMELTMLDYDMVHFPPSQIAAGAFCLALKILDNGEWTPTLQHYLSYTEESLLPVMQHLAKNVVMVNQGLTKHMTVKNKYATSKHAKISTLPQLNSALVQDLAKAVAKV
pIC50: −log10 of the molar value.
PROPERTY_NAME: pIC50

Some molecules with recorded pIC50:
CC1(NC(=O)O[C@H]2CC[C@@H](c3cc(Nc4ccc5c(c4F)CN(C4CC4)S5(=O)=O)n[nH]3)C2)COC1 (relative stereo) [Example 372] :: 6.40
CCN1Cc2c(ccc(Nc3cc([C@@H]4CC[C@H](OC(=O)NC(C)C)C4)[nH]n3)c2F)S1(=O)=O (relative stereo) [Example 60] :: 6.30

a. CCCNC(=O)O[C@H]1CC[C@@H](c2cc(Nc3ccc4c(c3F)CN(C)S4(=O)=O)n[nH]2)C1 (single isomer, unassigned) [Example 122b]
b. CN1c2ccc(Nc3cc([C@@H]4CC[C@H](OC(=O)NC5CCC5)C4)[nH]n3)cc2CS1(=O)=O (racemic) [Example 227]
Between the entries labeled a and b , whose measured pIC50 is lower? I would appreciate it if you answered with the label of your choice.
b

P. CC[C@H](C)NC(=O)O[C@H]1CC[C@@H](c2cc(Nc3ccc4c(c3F)CN(C3CC3)S4(=O)=O)n[nH]2)C1 (single isomer, unassigned) [Example 117b]
Q. CN1c2ccc(Nc3cc([C@@H]4CC[C@H](OC(=O)NC5CC6(CCC6)C5)C4)[nH]n3)cc2CS1(=O)=O (relative stereo) [Example 224]
R. CC(C)NC(=O)O[C@H]1CC[C@@H](c2cc(Nc3ccc4c(c3F)CN(C3CCC(=O)NC3)S4(=O)=O)n[nH]2)C1 (relative stereo) [Example 82]
S. CC1(NC(=O)O[C@H]2CC[C@@H](c3cc(Nc4ccc5c(c4F)S(=O)(=O)NC5)n[nH]3)C2)CC1 (relative stereo) [Example 187]
T. Cc1cc(Nc2cc([C@@H]3CC[C@H](OC(=O)NC(C)C)C3)[nH]n2)cc2c1N(C)S(=O)(=O)C2 (relative stereo) [Example 245]
// sort entries: pIC50, high to low Respond with the label ranking, as requested.
S, P, R, T, Q

I. CC(C)NC(=O)O[C@H]1CC[C@@H](c2cc(Nc3ccc4c(c3)NS(=O)(=O)N4)n[nH]2)C1 (relative stereo) [Example 320]
II. CCCNC(=O)O[C@H]1CC[C@@H](c2cc(Nc3ccc4c(c3F)S(=O)(=O)NC4)n[nH]2)C1 (single isomer, unassigned) [Example 189b]
Between the entries labeled I and II , whose measured pIC50 is lower? I would appreciate it if you answered with the label of your choice.
I

I. [2H]C([2H])([2H])N1Cc2c(ccc(Nc3cc([C@@H]4CC[C@H](OC(=O)NC5(C)CC5)C4)[nH]n3)c2F)S1(=O)=O (single isomer, unassigned) [Example 132b]
II. CC(C)NC(=O)O[C@H]1CC[C@@H](c2cc(Nc3ccc4c(c3)CS(=O)(=O)N4C3COC3)n[nH]2)C1 (relative stereo) [Example 209]
# argmax over pIC50 for candidates I and II I would appreciate it if you answered with the label of your choice.
II

----------
target: CDK1/Cyclin B1 (Homo sapiens, UniProt P06493); test: CDK1/Cyclin B1 Biochemical Assay (TR-FRET), 0.015 mM ATP; conditions: 0.15 μM Rb (Ser780)-biotin substrate, pH7.0, 60 min preincubation, 120 min reaction, room temperature
PROPERTY_NAME: IC50 (nM)

Some molecules with recorded IC50:
COCC(C)NC(=O)O[C@H]1CC[C@@H](c2cc(Nc3ccc4c(c3)CS(=O)(=O)N4)n[nH]2)C1 (relative stereo) :: 119
CC(C)NC(=O)O[C@H]1CC[C@@H](c2cc(Nc3ccc4c(c3)C(=O)NS4(=O)=O)n[nH]2)C1 (relative stereo) :: 470

I. CC[C@H](C)NC(=O)O[C@H]1CC[C@@H](c2cc(Nc3ccc4c(c3F)CNS4(=O)=O)n[nH]2)C1 (single isomer, unassigned) [Example 139b]
II. O=C(O[C@H]1CC[C@@H](c2cc(Nc3ccc4c(c3F)CS(=O)(=O)N4)n[nH]2)C1)N1CCOCC1 (relative stereo)
III. O=C(NC1CCC1)O[C@@H]1CC[C@H](c2cc(Nc3ccc4c(c3F)CS(=O)(=O)N4)n[nH]2)C1 (single isomer, unassigned) [Example 399a]
IV. CC(CC(F)(F)F)NC(=O)O[C@H]1CC[C@@H](c2cc(Nc3cc4c(cc3F)S(=O)(=O)NC4)n[nH]2)C1 (relative stereo)
Arrange these 4 molecules in increasing order of IC50. Respond with the label ranking, as requested.
I, IV, III, II

A. CC[C@H](C)NC(=O)O[C@H]1CC[C@@H](c2cc(Nc3ccc4c(c3F)C(C)NS4(=O)=O)n[nH]2)C1 (single isomer, unassigned) [Example 54b]
B. CC[C@H](C)NC(=O)O[C@H]1CC[C@@H](c2cc(Nc3ccc4c(c3F)CS(=O)(=O)N4C)n[nH]2)C1 (relative stereo)
Between the entries labeled A and B , whose measured IC50 is lower? I would appreciate it if you answered with the label of your choice.
B
(B: 37 nM, A: 564 nM)

I. [2H]C([2H])([2H])C1c2cc(Nc3cc([C@@H]4CC[C@H](OC(=O)NCCC)C4)[nH]n3)cc(F)c2N(C([2H])([2H])[2H])S1(=O)=O (relative stereo)
II. CC(C)NC(=O)O[C@H]1CC[C@@H](c2cc(Nc3ccc4c(c3F)CN(CCO)S4(=O)=O)n[nH]2)C1 (single isomer, unassigned) [Example 125b]
Between the entries labeled I and II , whose measured IC50 is lower? I would appreciate it if you answered with the label of your choice.
I
(I: 61 nM, II: 341 nM)

P. CC(C)NC(=O)O[C@H]1CC[C@@H](c2cc(Nc3ccc4c(c3F)CN(C3CCN(Cc5ccccc5)CC3)S4(=O)=O)n[nH]2)C1 (relative stereo)
Q. CC(C)NC(=O)O[C@H]1CC[C@@H](c2cc(Nc3cc4c(cc3F)S(=O)(=O)N(C)C4)n[nH]2)C1 (relative stereo)
R. CC[C@H](C)NC(=O)O[C@H]1CC[C@@H](c2cc(Nc3ccc4c(c3F)CN(C3COC3)S4(=O)=O)n[nH]2)C1 (single isomer, unassigned) [Example 134b]
S. COCC(C)(C)NC(=O)O[C@H]1CC[C@@H](c2cc(Nc3ccc4c(c3F)CS(=O)(=O)N4)n[nH]2)C1 (relative stereo)
T. COCC(C)(C)NC(=O)O[C@H]1CC[C@@H](c2cc(Nc3ccc4c(c3F)CS(=O)(=O)N4CCO)n[nH]2)C1 (relative stereo)
// sort entries: IC50, high to low Respond with the label ranking, as requested.
Q, P, R, T, S
(Q: 6010 nM, P: 1110 nM, R: 120 nM, T: 45 nM, S: 31 nM)

P. CC(C)NC(=O)O[C@H]1CC[C@@H](c2cc(Nc3ccc4c(c3F)S(=O)(=O)NC4)n[nH]2)C1 (single isomer, unassigned) [Example 186b]
Q. CCCNC(=O)O[C@H]1C[C@@H](c2cc(Nc3cc4c(cc3F)S(=O)(=O)NC4)n[nH]2)C1
R. CC(C)NC(=O)O[C@H]1CC[C@@H](c2cc(Nc3ccc4c(c3F)CN(C3CC3)S4(=O)=O)n[nH]2)C1 (single isomer, unassigned) [Example 116a]
Arrange these 3 molecules in increasing order of IC50. Respond with the label ranking, as requested.
P, Q, R
(P: 44 nM, Q: 140 nM, R: 518 nM)

A. CC1(NC(=O)O[C@H]2CC[C@@H](c3cc(Nc4ccc5c(c4)CCS(=O)(=O)N5)n[nH]3)C2)CC1 (single isomer, unassigned) [Example 249b]
B. CCCNC(=O)O[C@H]1CC[C@@H](c2cc(Nc3ccc4c(c3F)CS(=O)(=O)N4C3COC3)n[nH]2)C1 (single isomer, unassigned) [Example 260a]
# argmax over IC50 for candidates A and B I would appreciate it if you answered with the label of your choice.
B

I. CN1c2ccc(Nc3cc([C@@H]4CC[C@H](OC(=O)NC(C)(C)CO)C4)[nH]n3)cc2CS1(=O)=O (single isomer, unassigned) [Example 325a]
II. CN1c2ccc(Nc3cc([C@@H]4CC[C@H](OC(=O)NC5(CO)CC5)C4)[nH]n3)c(F)c2CS1(=O)=O (relative stereo)
III. O=C(NC1(CO)CCC1)O[C@H]1CC[C@@H](c2cc(Nc3ccc4c(c3F)CNS4(=O)=O)n[nH]2)C1 (relative stereo)
Arrange these 3 molecules in increasing order of IC50. Respond with the label ranking, as requested.
I, III, II
